Each recorded value in this set is attributed to the supplement of paper PMC10515830.

Kindly state difference in excitability for each of the entries shown.
Test system: Danio rerio larvae (5 dpf)
Assay: difference in excitability vs DMSO (percentage points); higher = more excitable than DMSO
Conditions: 10 µM; exposure time 6 h
Structures can show the parent of a compound that is named as a salt.
Write the number on its own, no unit after it.

Given the entry CN(C)CCC[C@@]1(c2ccc(F)cc2)OCc2cc(C#N)ccc21 , report its measured difference in excitability.
12.5

Could you do the same for COc1cc(C(=O)NS(=O)(=O)c2ccccc2C)ccc1Cc1cn(C)c2ccc(NC(=O)OC3CCCC3)cc12 , please?
3.02

Could you do the same for CC(CCc1ccccc1)NCC(O)c1ccc(O)c(C(N)=O)c1 (configuration not stated) [Labetalol (hydrochloride)] , please?
3.49

Could you do the same for CCc1ccc(CCOc2ccc(CC3SC(=O)NC3=O)cc2)nc1 (configuration not stated) [Pioglitazone (hydrochloride)] , please?
12.4

Could you do the same for CCN(CC)CCOC(=O)C1(C2CCCCC2)CCCCC1 [Dicyclomine (hydrochloride)] , please?
9.55

Could you do the same for O=c1[nH]c2ccccc2n1CCN1CCN(c2cccc(C(F)(F)F)c2)CC1 , please?
17.7

Could you do the same for C[C@H]1C[C@H]2[C@@H]3CCC4=CC(=O)C=C[C@]4(C)[C@@]3(F)[C@@H](O)C[C@]2(C)[C@@]1(O)C(=O)CO , please?
19.9

Could you do the same for Cc1ccc(C(=O)Nc2ccc(CN3CCN(C)CC3)c(C(F)(F)F)c2)cc1C#Cc1cnc2cccnn12 , please?
7.08

Could you do the same for CCN(CC)C(=O)/C(C#N)=C/c1cc(O)c(O)c([N+](=O)[O-])c1 , please?
5.12

Could you do the same for CC(=O)Oc1ccccc1C(=O)Nc1ncc([N+](=O)[O-])s1 [Nitazoxanide] , please?
12.9

Could you do the same for O=C(O)c1cn(C2CC2)c2cc(N3CCNCC3)c(F)cc2c1=O [Ciprofloxacin (hydrochloride)] , please?
5.21

Could you do the same for C[n+]1ccccc1/C=N/O [Pralidoxime (chloride)] , please?
1.97

Could you do the same for CC(C)(C)NC(=O)[C@H]1CC[C@H]2[C@@H]3CC[C@H]4NC(=O)C=C[C@]4(C)[C@H]3CC[C@]12C [Finasteride] , please?
11.1

Could you do the same for CC(=O)O[C@]1(C(C)=O)CC[C@H]2[C@@H]3C=C(C)C4=CC(=O)CC[C@]4(C)[C@H]3CC[C@@]21C [Megestryl Acetate] , please?
20.8

Could you do the same for NCCCC(N)(C(=O)O)C(F)F (racemic) [DL-α-Difluoromethylornithine (hydrochloride hydrate)] , please?
-2.42

Could you do the same for CN(C)C(=N)NC(=N)N [Metformin (hydrochloride)] , please?
-3.21

Could you do the same for CN1CCCC(n2nc(Cc3ccc(Cl)cc3)c3ccccc3c2=O)CC1 (configuration not stated) [Azelastine (hydrochloride)] , please?
19.9

Could you do the same for C[N+](C)(C)C[C@H](O)CC(=O)[O-] , please?
-2.51

Could you do the same for C[C@@H]1C[C@H]2[C@@H]3CCC4=CC(=O)C=C[C@]4(C)[C@@]3(F)[C@@H](O)C[C@]2(C)[C@H]1C(=O)CO , please?
2.03

Could you do the same for CC[C@H](Nc1ncnc2[nH]cnc12)c1nc2cccc(F)c2c(=O)n1-c1ccccc1 , please?
5.3

Could you do the same for Nc1nc(F)nc2c1ncn2[C@@H]1O[C@H](COP(=O)(O)O)[C@@H](O)[C@@H]1O [Fludarabine Phosphate] , please?
2.14

Could you do the same for CN(C)[C@@H]1C(O)=C(C(N)=O)C(=O)[C@@]2(O)C(O)=C3C(=O)c4c(O)ccc(Cl)c4[C@@H](O)[C@H]3C[C@@H]12 [Demeclocycline (hydrochloride)] , please?
12.9

Could you do the same for O=C(CCCN1CC=C(n2c(=O)[nH]c3ccccc32)CC1)c1ccc(F)cc1 , please?
29

Could you do the same for CC(C)(C)c1cc(C(C)(C)C)c(NC(=O)c2c[nH]c3ccccc3c2=O)cc1O , please?
2

Could you do the same for C[C@H]1[C@H](NC(=O)/C(=N\OC(C)(C)C(=O)O)c2csc(N)n2)C(=O)N1S(=O)(=O)O , please?
-7.88

Could you do the same for Nc1ccn([C@@H]2O[C@H](CO)[C@@H](O)[C@@H]2O)c(=O)n1 , please?
1.17

Could you do the same for CC(C)OC(=O)CCC/C=C\C[C@@H]1[C@@H](/C=C/C(F)(F)COc2ccccc2)[C@H](O)C[C@@H]1O , please?
10.1

Could you do the same for Cc1cn[nH]c1 [Fomepizole] , please?
-1.56

Could you do the same for OCCN1CCN(CCCN2c3ccccc3Sc3ccc(C(F)(F)F)cc32)CC1 [Fluphenazine (hydrochloride)] , please?
23.3

Could you do the same for COc1cc2nccc(Oc3ccc(NC(=O)NC4CC4)c(Cl)c3)c2cc1C(N)=O , please?
13.6

Could you do the same for NC[C@@H](O)c1ccc(O)c(O)c1 [L-(-)-Norepinephrine (bitartrate hydrate)] , please?
5.69

Could you do the same for C[C@@H]1CCO[C@H]2Cn3cc(C(=O)NCc4ccc(F)cc4F)c(=O)c(O)c3C(=O)N12 , please?
9.08

###

Test system: Danio rerio larvae (5 dpf)
Experiment: difference in excitability vs DMSO (percentage points); higher = more excitable than DMSO
Details: 10 µM; exposure time 6 h
Structures can show the parent of a compound that is named as a salt.
The recorded difference in excitability of each item maps onto one of these classes: small value: < 3; mid value: ≥ 3 and < 9; large value: ≥ 9

Could you place C[C@H](CCC(=O)O)[C@H]1CC[C@H]2[C@@H]3CC[C@@H]4C[C@H](O)CC[C@]4(C)[C@H]3C[C@H](O)[C@]12C in its proper category? Many thanks.
large value

Could you do the same for Nc1nc(CC(=O)Nc2ccc(CCNC[C@H](O)c3ccccc3)cc2)cs1 , please?
large value

Could you do the same for NC[C@@H]1O[C@@H](O[C@H]2[C@H](O)[C@@H](O[C@H]3O[C@H](CO)[C@@H](O)[C@H](N)[C@H]3O)[C@H](N)C[C@@H]2N)[C@@H](O)[C@H](O)[C@H]1O [Kanamycin A (sulfate)] , please?
mid value

Could you do the same for Nc1ccn(C[C@@H](CO)OCP(=O)(O)O)c(=O)n1 , please?
small value

Could you do the same for CCc1c(C)[nH]c2c1C(=O)C(CN1CCOCC1)CC2 (stereo not given) [Molindone (hydrochloride)] , please?
mid value

Could you do the same for CS(=O)(=O)c1cccc(C[C@H](NC(=O)c2c(Cl)cc3c(c2Cl)CCN(C(=O)c2ccc4ccoc4c2)C3)C(=O)O)c1 , please?
mid value

Could you do the same for C[C@@H](c1ncncc1F)[C@](O)(Cn1cncn1)c1ccc(F)cc1F , please?
mid value

Could you do the same for CN(C)[C@@H]1C(O)=C(C(N)=O)C(=O)[C@@]2(O)C(O)=C3C(=O)c4c(O)cccc4[C@@](C)(O)[C@H]3C[C@@H]12 [Tetracycline (hydrochloride)] , please?
mid value

Could you do the same for CCCCC[C@](C)(O)/C=C/[C@@H]1[C@@H](C/C=C\CCCC(=O)O)[C@@H](O)C[C@H]1O [15(S)-15-methyl Prostaglandin F2α] , please?
small value

Could you do the same for CC1(C)S[C@@H]2[C@H](NC(=O)[C@H](N)c3ccccc3)C(=O)N2[C@H]1C(=O)O [Ampicillin (sodium salt)] , please?
small value

Could you do the same for CC1(C)O[C@@H]2[C@@H](CO[C@@]3(COS(N)(=O)=O)OC(C)(C)O[C@@H]23)O1 [Topiramate] , please?
small value

Could you do the same for Cc1ccccc1C(=O)Nc1ccc(C(=O)N2CCCC(O)c3cc(Cl)ccc32)c(C)c1 (stereo not given) , please?
large value

Could you do the same for CO[C@@]1(NC(=O)Cc2cccs2)C(=O)N2C(C(=O)O)=C(COC(N)=O)CS[C@@H]21 [Cefoxitin (sodium salt)] , please?
small value

###

System: Danio rerio larvae (5 dpf)
Assay: difference in startle response vs DMSO (percentage points); higher = stronger startle than DMSO
Conditions: 10 µM; exposure time 6 h
Structures can show the parent of a compound that is named as a salt.
# cutoff -3 applies to difference in startle response; >= gives 1, < gives -1

Entry CNS(=O)(=O)CCc1ccc2[nH]cc(C3CCN(C)CC3)c2c1 [Naratriptan (hydrochloride)] : is its difference in startle response no less than -3?
1

Could you do the same for OCCN1CCN(CCCN2c3ccccc3Sc3ccc(Cl)cc32)CC1 , please?
-1

Could you do the same for Cc1nnc(SCC2=C(C(=O)O)N3C(=O)[C@@H](NC(=O)Cn4cnnn4)[C@H]3SC2)s1 [Cefazolin (sodium salt)] , please?
1

Could you do the same for CC(=O)OCC(=O)[C@@]12OC3(CCCC3)O[C@@H]1C[C@H]1[C@@H]3CCC4=CC(=O)C=C[C@]4(C)[C@@]3(F)[C@@H](O)C[C@@]12C [Amcinonide] , please?
1

Could you do the same for CC(C)NCC(O)c1ccc(O)c(O)c1 (stereo unspecified) [Isoproterenol (hydrochloride)] , please?
-1

Could you do the same for CN(CCOc1ccc(NS(C)(=O)=O)cc1)CCc1ccc(NS(C)(=O)=O)cc1 [Dofetilide] , please?
-1

Could you do the same for CN(C)C(=O)N[C@H]1CC[C@H](CCN2CCN(c3cccc(Cl)c3Cl)CC2)CC1 [Cariprazine (hydrochloride)] , please?
1

Could you do the same for Nc1ccc(S(N)(=O)=O)cc1 [Sulfanilamide] , please?
-1

Could you do the same for NC[C@@H](O)c1ccc(O)c(O)c1 [L-(-)-Norepinephrine (bitartrate hydrate)] , please?
-1

Could you do the same for O=C(C1CCCCC1)N1CC(=O)N2CCc3ccccc3C2C1 (stereo unspecified) , please?
1

Could you do the same for Cc1c(OCC(F)(F)F)ccnc1C[S+]([O-])c1nc2ccccc2[nH]1 (stereo unspecified) , please?
1

Could you do the same for COc1ccc(CC2c3cc(OC)c(OC)cc3CC[N+]2(C)CCC(=O)OCCCCCOC(=O)CC[N+]2(C)CCc3cc(OC)c(OC)cc3C2Cc2ccc(OC)c(OC)c2)cc1OC (stereo unspecified) [Atracurium (besylate)] , please?
-1

Could you do the same for COc1cc2c(cc1OC)CC(=O)N(CCCN(C)C[C@H]1Cc3cc(OC)c(OC)cc31)CC2 [Ivabradine (hydrochloride)] , please?
1

Could you do the same for CC(=O)OCC[N+](C)(C)C [Acetylcholine (chloride)] , please?
1

Could you do the same for Cn1nnc(-c2ccc(-c3ccc(N4C[C@H](COP(=O)(O)O)OC4=O)cc3F)cn2)n1 [Tedizolid Phosphate] , please?
1
